Value source: patent US20250136677A1

Recorded kon values for a group of binders are listed next.
- system_name: T1, canine IL-31 protein (Canine_IL31) (canine)
- T1 chain: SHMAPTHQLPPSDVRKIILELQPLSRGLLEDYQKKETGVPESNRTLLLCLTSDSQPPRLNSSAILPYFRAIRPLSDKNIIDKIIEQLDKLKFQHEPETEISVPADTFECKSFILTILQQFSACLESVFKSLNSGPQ
- test_method_notes: SPR (Biacore), IL-31 on chip, 1:1 fit

binder	endpoint_result
Feline 15H05 VH2 mouse VL (antibody, V domains shown, also called felinized 15H05 VH2 with mouse 15H05 VL (heterochimera)) VH: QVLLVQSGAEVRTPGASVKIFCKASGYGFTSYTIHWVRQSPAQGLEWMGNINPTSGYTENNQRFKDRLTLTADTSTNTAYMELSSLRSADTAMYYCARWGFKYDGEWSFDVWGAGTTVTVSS VL: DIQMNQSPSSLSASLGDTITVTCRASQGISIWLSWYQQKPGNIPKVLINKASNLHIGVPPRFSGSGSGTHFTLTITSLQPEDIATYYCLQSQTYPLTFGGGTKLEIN	171000 M⁻¹ s⁻¹
Feline 15H05 1.1 FW2 (antibody, V domains shown, also called felinized 15H05 1.1 FW2) VH: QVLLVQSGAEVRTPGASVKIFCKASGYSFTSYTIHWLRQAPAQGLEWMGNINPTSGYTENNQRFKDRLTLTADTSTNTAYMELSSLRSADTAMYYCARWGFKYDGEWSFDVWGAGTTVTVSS VL: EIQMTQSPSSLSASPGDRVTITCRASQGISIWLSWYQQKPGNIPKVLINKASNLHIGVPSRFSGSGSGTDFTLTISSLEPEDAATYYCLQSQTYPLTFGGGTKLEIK	384000 M⁻¹ s⁻¹

Now consider the entry below.
Determine its reported kon: Feline 11E12 1.1 FW2 (antibody, V domains shown, Feline 11E12 VL1 with the mouse FW2; Feline heavy and kappa constant regions) VH: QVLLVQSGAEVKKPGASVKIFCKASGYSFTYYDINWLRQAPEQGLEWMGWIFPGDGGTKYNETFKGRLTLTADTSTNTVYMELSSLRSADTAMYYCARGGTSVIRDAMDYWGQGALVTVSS VL: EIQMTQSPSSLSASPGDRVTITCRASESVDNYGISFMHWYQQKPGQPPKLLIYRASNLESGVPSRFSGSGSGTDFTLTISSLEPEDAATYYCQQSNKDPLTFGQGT
45200 M⁻¹ s⁻¹
